Catalogue of TGI readings, one per entry.
system: MOLT-4 leukemia; assay: NCI tumour cell line growth inhibition, 48 h

Below, 3 molecules whose answers are already recorded.
>  <molecule>
C(CCCCc1nnc(N2CCCCC2)o1)CCCc1nnc(N2CCCCC2)o1

>  <TGI>
> 100 µM

$$$$
>  <molecule>
CCOC(=O)c1cc2c3c(c(C(C)=O)c(O)c2[nH]1)N(CC(C)CC)CC3 (stereo unspecified)

>  <TGI>
> 100 µM

$$$$
>  <molecule>
CN1CC[C@@H](c2c(O)cc(O)c3c(=O)cc(-c4ccccc4Cl)oc23)[C@@H]1CO

>  <TGI>
> 3.79 µM

$$$$

# returns recorded TGI (system: MOLT-4 leukemia) for "C/C(Nc1ccc(F)cc1)=C1/CCOC1=O"
> 100 µM

Same question, "O=CN/C=C/c1ccc(O)c(O)c1" this time
> 100 µM

Same question, COc1ccc(OC)c2c1C(=O)C1CC1(Br)C2=O (stereo unspecified) this time
> 100 µM

The reported numbers originate from PubChem BioAssay (NCI).
